Each record here notes measured EC50.
Tested on: Measles morbillivirus
Assay Info: Antiviral activity against Measles virus MVi/Alaska USA/16.00 genotype H2 infected in african green monkey Vero cells assessed as reduction in viral-induced cytopathogenicity
Type: functional, organism-based
Condition Label: MVi/Alaska USA/16.00 genotype H2, Vero

Param item: COc1ccc(-n2c(S(=O)(=O)C(C)C(=O)Nc3ccc(C)cc3Cl)nc3ccccc32)cc1 (stereo not drawn) ; param system: Measles morbillivirus; output EC50: > 150 µM

Param item: COc1ccc(-n2c(CCC(=O)Nc3ccc(C)cc3Cl)nc3ccccc32)cc1 ; param system: Measles morbillivirus; output EC50: > 150 µM

Param item: Cc1ccc(NC(=O)[C@H](C)Oc2nc3ccccc3n2Cc2ccccc2)c(Cl)c1 ; param system: Measles morbillivirus; output EC50: > 150 µM
